Molecular target: UBE2K; further: test concentration or dose not given here
Assay: reporter assay of Huesken 2005
Conditions: siRNA
Oligonucleotides are given in HELM: sugar(base)linkage, 5' to 3'; d 2'-deoxyribose, r ribose, m 2'-O-methylribose, p phosphate. ss, as = sense and antisense strand
Form field: normalised inhibition (eCFP-eYFP dual reporter) (one value per entry).
observable: normalised inhibition (eCFP-eYFP dual reporter) (%)

substance	result_unit	measurement
RNA1{r(A)p.r(G)p.r(U)p.r(A)p.r(G)p.r(A)p.r(U)p.r(C)p.r(U)p.r(U)p.r(G)p.r(U)p.r(A)p.r(G)p.r(A)p.r(U)p.r(G)p.r(A)p.r(G)p.d(T)p.d(T)}|RNA2{r(C)p.r(U)p.r(C)p.r(A)p.r(U)p.r(C)p.r(U)p.r(A)p.r(C)p.r(A)p.r(A)p.r(G)p.r(A)p.r(U)p.r(C)p.r(U)p.r(A)p.r(C)p.r(U)p.d(T)p.d(T)}$$$RNA1{StrandType:ss}|RNA2{StrandType:as}$	%	88.2
RNA1{r(C)p.r(C)p.r(U)p.r(A)p.r(A)p.r(U)p.r(A)p.r(U)p.r(U)p.r(A)p.r(G)p.r(U)p.r(U)p.r(C)p.r(C)p.r(G)p.r(U)p.r(C)p.r(A)p.d(T)p.d(T)}|RNA2{r(U)p.r(G)p.r(A)p.r(C)p.r(G)p.r(G)p.r(A)p.r(A)p.r(C)p.r(U)p.r(A)p.r(A)p.r(U)p.r(A)p.r(U)p.r(U)p.r(A)p.r(G)p.r(G)p.d(A)p.d(T)}$$$RNA1{StrandType:ss}|RNA2{StrandType:as}$	%	74.9
RNA1{r(U)p.r(U)p.r(C)p.r(C)p.r(G)p.r(U)p.r(C)p.r(A)p.r(C)p.r(A)p.r(G)p.r(G)p.r(G)p.r(G)p.r(C)p.r(U)p.r(A)p.r(U)p.r(U)p.d(T)p.d(T)}|RNA2{r(A)p.r(A)p.r(U)p.r(A)p.r(G)p.r(C)p.r(C)p.r(C)p.r(C)p.r(U)p.r(G)p.r(U)p.r(G)p.r(A)p.r(C)p.r(G)p.r(G)p.r(A)p.r(A)p.d(C)p.d(T)}$$$RNA1{StrandType:ss}|RNA2{StrandType:as}$	%	55.5
RNA1{r(U)p.r(C)p.r(U)p.r(U)p.r(G)p.r(U)p.r(A)p.r(G)p.r(A)p.r(U)p.r(G)p.r(A)p.r(G)p.r(A)p.r(A)p.r(U)p.r(U)p.r(U)p.r(U)p.d(T)p.d(T)}|RNA2{r(A)p.r(A)p.r(A)p.r(A)p.r(U)p.r(U)p.r(C)p.r(U)p.r(C)p.r(A)p.r(U)p.r(C)p.r(U)p.r(A)p.r(C)p.r(A)p.r(A)p.r(G)p.r(A)p.d(T)p.d(C)}$$$RNA1{StrandType:ss}|RNA2{StrandType:as}$	%	84.4
RNA1{r(G)p.r(A)p.r(A)p.r(A)p.r(U)p.r(G)p.r(U)p.r(U)p.r(C)p.r(A)p.r(A)p.r(A)p.r(C)p.r(A)p.r(G)p.r(A)p.r(C)p.r(A)p.r(G)p.d(T)p.d(T)}|RNA2{r(C)p.r(U)p.r(G)p.r(U)p.r(C)p.r(U)p.r(G)p.r(U)p.r(U)p.r(U)p.r(G)p.r(A)p.r(A)p.r(C)p.r(A)p.r(U)p.r(U)p.r(U)p.r(C)p.d(G)p.d(G)}$$$RNA1{StrandType:ss}|RNA2{StrandType:as}$	%	76.6
